Assay system: T1, CD123 (Homo sapiens (Human), UniProt P26951 19-305, limits assumed)
T1 construct: also called CD123-Signal
T1 sequence: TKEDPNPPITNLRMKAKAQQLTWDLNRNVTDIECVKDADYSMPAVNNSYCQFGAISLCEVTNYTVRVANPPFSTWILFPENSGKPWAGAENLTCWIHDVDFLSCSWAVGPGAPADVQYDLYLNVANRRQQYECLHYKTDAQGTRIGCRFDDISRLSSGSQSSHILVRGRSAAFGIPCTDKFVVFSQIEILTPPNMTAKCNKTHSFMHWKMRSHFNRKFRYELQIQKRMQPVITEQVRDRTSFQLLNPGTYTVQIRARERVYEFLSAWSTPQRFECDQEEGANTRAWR
Assay protocol: ELISA, format not described
Parameters: unit not given here
Assay endpoint: ELISA_avg
One number for each entry.

Take a look at these entries with their results.
D domain SEQ ID NO: 689 (designed binder) MGSWEEFEQRLWAIDDRLWALGGSEAELAFFEYEIAEFEMDLQWYKGKGNPEVEALFYEAHAINEELWAYRHN :: 5.7
D domain SEQ ID NO: 709 (designed binder) MGSWYEFDDRLEAIWDRLGALGGSEAELAAFEKEIAAFESELQAYKGKGNPEVEWLRETAADIRAELQAYRHN :: 3.3
D domain SEQ ID NO: 731 (designed binder) MGSWYEFYNRLSAIYARLQALGGSEAELAAFEKEIAAFESELQAYKGKGNPEVEDLRWYAADIRYMLQAYRHN :: 10.6

Your task in this section: give ELISA_avg for each listed record.
1. D domain SEQ ID NO: 740 (designed binder) MGSWYEFEERLYAIEDRLYALGGSEAELAAFEKEIAAFESELQAYKGKGNPEVEFLRQEAADIRLMLQAYRHN
2. D domain SEQ ID NO: 759 (designed binder) MGSWYEFEWRLDAIYDRLGALGGSEAELAAFEKEIAAFESELQAYKGKGNPEVEWLREDAAEIRALLQAYRHN

OUT:
[11.5, 6]
